- System: Plasmodium berghei
- test_summary: Antimalarial activity against trophozoite-induced Plasmodium berghei infected in mouse assessed as change in mean survival time at 10 mg/kg, sc single dose after 72 hrs of infection
- Type: functional
- details: route subcutaneous

- compound: "Nc1nc(N)c2c(Cl)c(S(=O)(=O)c3cccc(C(F)(F)F)c3)ccc2n1"
  MST: "0.5 days"
- compound: "COc1cccc(S(=O)(=O)c2ccc3nc(N)nc(N)c3c2)c1"
  MST: "1.1 days"
- compound: "Nc1nc(N)c2cc([S+]([O-])c3ccc4ccccc4c3)ccc2n1 (stereo not drawn)"
  MST: "31.9 days"

Source: ChEMBL document CHEMBL3244272
